Test: Solubility in water determined by UV absorption at 272 nm
Type: physicochemical
Conditions: read-out: S
measure: solubility

Illustrative cases are given below, each with its answer.
CCCCCCCCCCCCCCCC(=O)OC(COCCCCCCCCCCCC)COP(=O)([O-])OP(=O)([O-])OC[C@H]1OC(n2ccc(N)nc2=O)[C@@H](O)[C@@H]1O.[Na+].[Na+] (some centres not stated) : > 131 mM
CCCCCCCCCCCCCCOCC(COP(=O)([O-])OP(=O)([O-])OC[C@H]1OC(n2ccc(N)nc2=O)[C@@H](O)[C@@H]1O)OC(=O)CCCCCCCCCCCCC.[Na+].[Na+] (some centres not stated) : > 121 mM
CCCCCCCCCCCCCC(=O)OC(COCCCCCCCCCCCC)COP(=O)([O-])OP(=O)([O-])OC[C@H]1OC(n2ccc(N)nc2=O)[C@@H](O)[C@@H]1O.[Na+].[Na+] (some centres not stated) : > 146 mM
CCCCCCCCCCCCCCCCOCC(COP(=O)([O-])OP(=O)([O-])OC[C@H]1OC(n2ccc(N)nc2=O)[C@@H](O)[C@@H]1O)OC(=O)CCCCCCCCCCCCC.[Na+].[Na+] (some centres not stated) : > 107 mM

Tell me measured solubility for CCCCCCCCCCCCCCCCOCC(COP(=O)([O-])OP(=O)([O-])OC[C@H]1OC(n2ccc(N)nc2=O)[C@@H](O)[C@@H]1O)OC(=O)CCCCCCCCCCCCCCC.[Na+].[Na+] (some centres not stated) please.
0.13 mM

Tell me measured solubility for CCCCCCCCCCCCCCCC(=O)OC(COCCCCCCCCCCCCCC)COP(=O)([O-])OP(=O)([O-])OC[C@H]1OC(n2ccc(N)nc2=O)[C@@H](O)[C@@H]1O.[Na+].[Na+] (some centres not stated) please.
> 43 mM

Tell me measured solubility for CCCCCCCCCCCCCCCCOCC(COP(=O)([O-])OP(=O)([O-])OC[C@H]1OC(n2ccc(N)nc2=O)[C@@H](O)[C@@H]1O)OC(=O)CCCCCCCCCCC.[Na+].[Na+] (some centres not stated) please.
> 132 mM

====

Tested on: Mus musculus
Assay: Number of mice (out of 6 mice) survived after treatment with 150 mg/kg/day of compound on 1, 5, 9 day treatment schedule for 45 days
Assay type: functional
measure: No. of mice

CCCCCCCCCCCCCCCCOCC(COP(=O)([O-])OP(=O)([O-])OC[C@H]1OC(n2ccc(N)nc2=O)[C@@H](O)[C@@H]1O)OC(=O)CCCCCCCCCCCCCCC.[Na+].[Na+] (stereo not given in full) : 3
CCCCCCCCCCCCCC(=O)OC(COCCCCCCCCCCCC)COP(=O)([O-])OP(=O)([O-])OC[C@H]1OC(n2ccc(N)nc2=O)[C@@H](O)[C@@H]1O.[Na+].[Na+] (stereo not given in full) : 3
CCCCCCCCCCCCCCCC(=O)OC(COCCCCCCCCCCCC)COP(=O)([O-])OP(=O)([O-])OC[C@H]1OC(n2ccc(N)nc2=O)[C@@H](O)[C@@H]1O.[Na+].[Na+] (stereo not given in full) : 3
CCCCCCCCCCCCCCCCOCC(COP(=O)([O-])OP(=O)([O-])OC[C@H]1OC(n2ccc(N)nc2=O)[C@@H](O)[C@@H]1O)OC(=O)CCCCCCCCCCC.[Na+].[Na+] (stereo not given in full) : 5

Tell me measured No. of mice for CCCCCCCCCCCCCCOCC(COP(=O)([O-])OP(=O)([O-])OC[C@H]1OC(n2ccc(N)nc2=O)[C@@H](O)[C@@H]1O)OC(=O)CCCCCCCCCCCCC.[Na+].[Na+] (stereo not given in full) please.
1
